Each recorded value in this set is attributed to patent US20250152704A1.

- target_under_test: T1, rat FcRn (rat, UniProt P13599 23-298; P07151 21-119, limits assumed)
- T1 sequence (looked up) 1: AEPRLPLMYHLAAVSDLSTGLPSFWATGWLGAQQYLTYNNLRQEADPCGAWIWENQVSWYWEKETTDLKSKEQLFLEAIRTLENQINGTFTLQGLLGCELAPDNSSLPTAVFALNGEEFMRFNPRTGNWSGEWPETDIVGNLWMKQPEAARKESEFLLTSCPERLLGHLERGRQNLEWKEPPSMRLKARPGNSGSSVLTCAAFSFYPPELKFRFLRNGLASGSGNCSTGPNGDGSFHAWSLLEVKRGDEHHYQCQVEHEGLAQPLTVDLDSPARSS
- T1 sequence (looked up) 2: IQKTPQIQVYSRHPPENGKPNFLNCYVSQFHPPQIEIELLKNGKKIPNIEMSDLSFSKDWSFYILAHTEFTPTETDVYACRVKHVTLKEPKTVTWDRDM
- protocol_details: SPR, pH 6
The entries below are paired with their reported Kd.

{"binder": "Fc Fragment 11 (other, Human IgG1 Fc fragment; substitutions already in the entry) DKTHTCPPCPAPELLGGPSVFLFPPKPKDTLYITREPEVTCVVVDVSHEDPEVKFNWYVDGVEVHNAKTKPREEQYNSTYRVVSVLTVLHQDWLNGKEYKCKVSNKALPAPIEKTISKAKGQPREPQVYTLPPSRDELTKNQVSLTCLVKGFYPSDIAVEWESNGQPENNYKTTPPVLDSDGSFFLYSKLTVDKSRWQQGNVFSCSVLHEALHFHYTQKSLSLSPG", "Kd / nM": 2.9}
{"binder": "Fc Fragment 14 (other, Human IgG1 Fc fragment; substitutions already in the entry) DKTHTCPPCPAPELLGGPSVFLFPPKPKDTLYITREPEVTCVVVDVSHEDPEVKFNWYVDGVEVHNAKTKPREEQYNSTYRVVSVLTVLHQDWLNGKEYKCKVSNKALPAPIEKTISKAKGQPREPQVYTLPPSRDELTKNQVSLTCLVKGFYPSDIAVEWESNGQPENNYKTTPPVLDSDGSFFLYSKLTVDKSRWQQGNVFSCSVLHEALRFHYTQKSLSLSPG", "Kd / nM": 3.94}
{"binder": "Fc Fragment 12 (other, Human IgG1 Fc fragment; substitutions already in the entry) DKTHTCPPCPAPELLGGPSVFLFPPKPKDTLYITREPEVTCVVVDVSHEDPEVKFNWYVDGVEVHNAKTKPREEQYNSTYRVVSVLTVLHQDWLNGKEYKCKVSNKALPAPIEKTISKAKGQPREPQVYTLPPSRDELTKNQVSLTCLVKGFYPSDIAVEWESNGQPENNYKTTPPVLDSDGSFFLYSKLTVDKSRWQQGNVFSCSVMHEALRYHYTQKSLSLSPG", "Kd / nM": 5.41}
{"binder": "Fc Fragment 3 (other, Human IgG1 Fc fragment; substitutions already in the entry; also called Fc197) DKTHTCPPCPAPELLGGPSVFLFPPKPKDTLYITREPEVTCVVVDVSHEDPEVKFNWYVDGVEVHNAKTKPREEQYNSTYRVVSVLTVLHQDWLNGKEYKCKVSNKALPAPIEKTISKAKGQPREPQVYTLPPSRDELTKNQVSLTCLVKGFYPSDIAVEWESNGQPENNYKTTPPVLDSDGSFFLYSKLTVDKSRWQQGNVFSCSVMHEALKYHYTQKSLSLSPG", "Kd / nM": 4.25}
{"binder": "Fc Fragment 10 (other, Human IgG1 Fc fragment; substitutions already in the entry) DKTHTCPPCPAPELLGGPSVFLFPPKPKDTLYITREPEVTCVVVDVSHEDPEVKFNWYVDGVEVHNAKTKPREEQYNSTYRVVSVLTVLHQDWLNGKEYKCKVSNKALPAPIEKTISKAKGQPREPQVYTLPPSRDELTKNQVSLTCLVKGFYPSDIAVEWESNGQPENNYKTTPPVLDSDGSFFLYSKLTVDKSRWQQGNVFSCSVLHEALKYHYTQKSLSLSPG", "Kd / nM": 3.49}
